Please respond with reported inhibition for every item in the list.
# target_entity: Pantothenate synthetase (Mycobacterium tuberculosis (strain ATCC 25618 / H37Rv))
# experimental_protocol: Coupled enzyme confirmation of inhibitors against recombinant Mtb PanC (AID 375);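 note: 0% = full reaction with vehicle and 100% = no enzyme background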
# experimental_conditions: coupled enzyme assay; at 10 µM, active compounds read high
Calls of active or inactive are those of the source. The rule behind the calls is not given here.

GET /values?readout=inhibition&item= `CCOc1cc(C(=O)Nc2ncccn2)cc(OCC)c1OCC`
2% (inactive)

Which inhibition value is on record for `COc1ccc(CCNC(=O)CSc2nnnn2-c2ccccc2OC)cc1OC` ?
5% (inactive)

Could you tell me which inhibition is on file for COc1ccc(CN2C(=O)c3cccnc3C2Nc2cc(Cl)ccc2OC)cc1 (stereo not drawn) ?
3% (inactive)

* * *

Exercise: for every item that follows, state its recorded inhibition.
# experimental_protocol: yeast transport mutant growth inhibition pilot in 384-well plates, post-Golgi transport modulator project (AID 636)
# experimental_conditions: absorbance 615 nm, about 18 h, active compounds read high
Express your answer in %, writing the number without its unit.

Given the entry `O=P(OCC(F)(F)C(F)F)(N1CCCCC1)N1CCCCC1` , report its measured inhibition.
2.67

For the compound `Nc1ccnn1C1CCNCC1` , what inhibition is on record?
-4.25

I am curious: what inhibition value has been reported for `CC1=C(C(=O)OC(C)C)[C@]2(C(=O)N(CC(N)=O)c3ccccc32)C(C#N)=C(N)O1` ?
-6.8

Endpoint output: inhibition of `NCC1(CC(=O)O)CCCCC1` . Value?
-1.17

Field request: inhibition | item: `NCCc1ccc(O)cc1`
-5

What inhibition value was documented for this compound, CCCCn1c(O)c(C=NC2CCCCC2N)c(=O)[nH]c1=O (configuration not stated) ?
-2.6

Reported inhibition, compound `COc1ccc(Cc2nccc3cc(OC)c(OC)cc23)cc1OC` : ____
0.39

// query inhibition value for entry `c1ccc2c(c1)[nH]c1cnccc12`
-0.78

Give the measured inhibition of `CC(C)CC12CN3CCN(CC(C3)/C1=N/O)C2` .
-5.54

Suppose we examine the compound `CCCCCCOc1ccc(CN2CCN(C)CC2)cc1` ; what inhibition value has been reported?
-5.06

Query (compound): NCC(CC(=O)O)c1ccc(Cl)cc1 (configuration not stated) ; field requested: inhibition
-1.43

What inhibition value was documented for this compound, CCOC(=O)C1=C(N)OC(C)=C(C(=O)OCCOC)C12C(=O)Nc1ccccc12 (configuration not stated) ?
-4.52

GET /values?readout=inhibition&item= `CC(=O)Nc1ccc(OC(=O)c2ccccc2N)cc1`
-0.13

State the recorded inhibition for this entry: CC(C)(C)P(=O)(c1ccncc1)N1CCCC1 (configuration not stated)
-7.3

Look up inhibition: `NC(=O)CSP(=O)(c1ccccc1)c1ccccc1`
-8.53

Param item = `Nc1ccccc1C(=O)OC1CSC1` ; retrieve measured inhibition.
-2.53

Look up inhibition: CC1=C(C(=O)N2CCC3(CC2)OCCO3)C2(CCC(C)CC2)OC1=O (configuration not stated)
-0.77

* * *

Provide the reported inhibition of each item.
# target_entity: Pantothenate synthetase (Mycobacterium tuberculosis (strain ATCC 25618 / H37Rv)) (UniProt P9WIL5)
# Sequence (P9WIL5 whole entry, looked up): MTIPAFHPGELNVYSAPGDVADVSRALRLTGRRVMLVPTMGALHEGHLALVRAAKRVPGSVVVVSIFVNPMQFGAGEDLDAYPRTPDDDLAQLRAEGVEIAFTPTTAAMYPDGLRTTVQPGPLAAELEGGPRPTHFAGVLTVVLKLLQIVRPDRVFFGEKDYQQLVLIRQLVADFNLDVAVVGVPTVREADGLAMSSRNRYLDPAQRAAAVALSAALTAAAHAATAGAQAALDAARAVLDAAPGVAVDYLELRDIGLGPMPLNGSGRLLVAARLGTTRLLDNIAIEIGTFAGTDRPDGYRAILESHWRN
# experimental_protocol: Coupled enzyme confirmation of inhibitors against recombinant Mtb PanC (AID 375);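 note: 0% = full reaction with vehicle and 100% = no enzyme background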
# experimental_conditions: coupled enzyme assay; at 10 µM, active compounds read high
Express your answer in %, writing the number without its unit.

Entry `CCC(=O)Oc1ccc2c(C)cc(=O)oc2c1C` has what inhibition?
2

// query inhibition value for entry `CCn1c(CNc2ccc(C)cc2)nnc1SCC(=O)NCc1ccccc1`
0

Endpoint output: inhibition of `O=C(OCC(=O)N1CCCC1)c1cncc(Br)c1` . Value?
1

Item CC1CN(c2c3c(nc4ncnn24)CCCC3)CC(C)O1 (stereo unspecified) has what recorded inhibition?
2

Please look up its inhibition: `Cc1occc1C(=O)Nc1nnc(C2CCCCC2)s1`
0

Reported inhibition, compound `O=C(CCCOc1ccccc1)N1CCN(c2ccccn2)CC1` : ____
3

* * *

Task for the reader: assign each of the following molecules its reported inhibition.
# target_entity: Pantothenate synthetase (Mycobacterium tuberculosis (strain ATCC 25618 / H37Rv)) (UniProt P9WIL5)
# experimental_protocol: Coupled enzyme confirmation of inhibitors against recombinant Mtb PanC (AID 375);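 note: 0% = full reaction with vehicle and 100% = no enzyme background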
# experimental_conditions: coupled enzyme assay; at 10 µM, active compounds read high
Give just the number in %; leave the unit off.

If you can, please state the reported inhibition value of Cc1ccc(CC23CN4CCN(CC(C4)C2O)C3)c(C)c1 (configuration not stated) .
1

Dear colleague, I am looking for the recorded inhibition of the following molecule: Cc1ccc(CSc2nc3c(c(=O)[nH]2)C(c2ccncc2)C2=C(CCCC2=O)N3)cc1 (configuration not stated)
4

Which measured inhibition value corresponds to `CS(=O)(=O)N(CC(=O)Nc1ccc2c(c1)OCCO2)Cc1ccccc1` ?
2

Field request: inhibition | item: `CC(C)(C)NC(=O)COC(=O)c1snc(C(=O)NC2CCCCC2)c1N`
3

Please give the measured inhibition for this molecule: CCOC(=O)N1CCC(N(C(=O)Nc2ccc(Cl)c(Cl)c2)C(C)CC)CC1 (configuration not stated)
4

Recorded inhibition for `COc1ccc(Cl)c(NC(=O)NCCN2CCN(c3ccccc3)CC2)c1` , please?
0

// inhibition lookup, key: `CCOc1ccc2c(c1)n(CO)c(=S)n2CO`
0

* * *

Consider the following molecules; for each one, report its viability.
# experimental_protocol: reduced viability of SK-BR-3 breast cancer cells – cell-based, 24 h, human, pilot screen (AID 572);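 note: compound exposure lasted between 18 and 24 h rather than exactly 24 h; 100% = carrier-treated control wells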
# experimental_conditions: SK-BR-3 viability, CellTiter-Glo luminescence, at 10 µM, active compounds read low
Number only, in %; omit the unit.

Entry under review: `C[N+]1(C)CCN(c2ccccc2)CC1` . Reported viability?
118

GET /values?readout=viability&item= COC(=O)C1C2c3ccccc3OC1(C)N=c1s/c(=C/c3cnn(C)c3C)c(=O)n12 (configuration not stated)
98

# query: viability of entry `c1ccc(Cn2ccnc2)cc1`
127

Param item = CN1CCN(C(=O)OC2c3nccnc3C(=O)N2c2ccc(Cl)cn2)CC1 (configuration not stated) ; retrieve measured viability.
91.5

Which viability reading was recorded for the molecule `CCOc1cccc(N2C(=O)CC(=O)NC2=O)c1` ?
124

I'd like to know its viability. The molecule in question is `Cc1ccc(O)c(CN2CCN(c3ccccc3)CC2)c1`
94

If you can, please state the reported viability value of `CN(C)CCc1nc2ccccc2c(=O)n1-c1ccccc1` .
107

# input molecule: CCC(=NCC1CCCO1)c1c(O)n(Cc2ccccc2)c(=O)[nH]c1=O (configuration not stated) ; wanted: its viability
91

Which viability is reported for this molecule? `CCOP(=S)(OCC)c1ccc(N(C)C)cc1`
92.5

Which viability value belongs to `COC(=O)c1ccccc1-n1c(C)nc2ccccc2c1=O` ?
90

Consider the molecule CC1CCN2c3nc4ccccn4c(=O)c3CC3(C(=O)N(C)C(=O)N(C)C3=O)C2C1 (configuration not stated) and give its measured viability.
101

Looking for the measured viability of `COc1ccc(OC)c(N2C(=O)NC(=O)C(CCc3ccncc3)(CCc3ccncc3)C2=O)c1` , can you help?
105

# get_value(readout='viability', item= `C[C@H]1CCCC(=O)CCCCCc2cc(O)cc(O)c2C(=O)O1` )
107

// returns reported viability for input CCCC(C)(COC(N)=O)COC(=O)NC(C)C (configuration not stated)
88

What measured viability goes with Clc1ccc(COC(Cn2ccnc2)c2ccc(Cl)cc2Cl)cc1 (configuration not stated) ?
123

Entry Cc1ccc(C2SCC(=O)Nc3c2c(=O)[nH]n3C2CCOC(C)(C)C2)cc1 (configuration not stated) : reported viability = ?
100

For the molecule `CCN1CCN(C(=O)COc2cc(=O)n(CC)c3ccccc23)CC1` , what viability is on record?
80.5

Recorded viability for `Cc1nn(Cc2ccccc2Cl)c(Cl)c1C(=O)OCC(=O)NCc1ccco1` , please?
85

Name the recorded viability for C#CCN(C)C(C)Cc1ccccc1 (configuration not stated) .
115

What value of viability has been recorded for this entry: CCN1c2nc3ccccn3c(=O)c2CC2(C(=O)N(C)C(=O)N(C)C2=O)C1C (configuration not stated)
119

Can you share its viability? I mean this molecule: COc1ccc(C2SCC(=O)Nc3c2c(=O)[nH]n3C2CCCCCC2)cc1OC (configuration not stated)
124

viability for `COc1ccc(CN2CCN(c3ccccc3F)CC2)c(OC)c1` ?
92

Could you tell me which viability is on file for `O=c1[nH]c(=O)n(Cc2ccccc2)c(O)c1C=NCCCO` ?
100

Form field: reported viability of Cc1ccc(C)c(C2(O)CC(C)N(C)CC2C)c1 (configuration not stated)
110

Consider the molecule `c1ccc2c3c([nH]c2c1)CNCC3` and give its measured viability.
116

Report viability for COc1ccc(S(=O)(=O)NC(CC(=O)N2CCC3(CC2)OCCO3)c2ccco2)cc1 (configuration not stated) please.
134

Fill in: viability of `Cc1ccc(Cn2c(C)c3cnn(CC(=O)N4CCC5(CC4)OCCO5)c(=O)c3c2C)cc1` is ___
97
